# Assay text: NCI Yeast Anticancer Drug Screen. Data for the mec2-1 strain (AID 157)
# Details: S. cerevisiae mec2-1 strain, at 50.0 µM, active compounds read high
Compounds without any hit were thinned out: in the full panel of roughly 79,000, 15% have a hit. Where a SMILES comes first, the peptide text is derived from it. The star is where a group is joined. Boc = CC(C)(C)OC(=O)*; OcHex = C1CCC(O*)CC1
Quantity: growth inhibition (%)
Answer in %, number only, no unit symbol.

// below: answered compounds
- Compound: "CC(C)CC(NC(=O)OC(C)(C)C)C(=O)NC(CCC(=O)OC1CCCCC1)C(N)=O (stereo not drawn) (Boc-Leu-Glu(OcHex)-NH2; configuration not given here)"
  growth inhibition, %: -12.4
- Compound: "COc1cc(-c2ccc(Nc3ccccc3C(=O)O)c(OC)c2)ccc1Nc1ccccc1C(=O)O"
  growth inhibition, %: 0.2

Task item: Which growth inhibition value belongs to COC(=O)C(=O)Cc1nc2ccccc2s1 ?
Reply: 1.35

Task item: Which growth inhibition value belongs to Cc1ccccc1NC(=O)Nc1ccccc1C ?
Reply: -15.3

----------
# Assay text: NCI Yeast Anticancer Drug Screen. Data for the bub3 strain (AID 167)
# Details: S. cerevisiae bub3 mutant strain, at 50.0 µM, active compounds read high
About 79,000 compounds went through this panel and 15% of them were active in at least one assay; those are over-represented in the sample as a whole.
Quantity: growth inhibition (%)
Answer in %, number only, no unit symbol.

// below: answered molecules
- Molecule: "Cc1ccc(C(=O)Nc2ccc(CP(=O)(O)O)cc2CP(=O)(O)O)cc1NC(=O)c1cccc(N)c1"
  growth inhibition [%]: 0.8
- Molecule: "COC1OC(CN)C(O)C(O)C1O (configuration not stated)"
  growth inhibition [%]: 5.7
- Molecule: "CC(=O)NC(Cc1ccccc1)C(=O)NN (configuration not stated)"
  growth inhibition [%]: -6.55

Task item: Which growth inhibition value belongs to C/C(CCC1CCCCC1)=N/NC(N)=O ?
Reply: 12.7

Task item: Which growth inhibition value belongs to Cc1c(C(=O)CC(=O)C(=O)Nc2c(C(C)C)cccc2C(C)C)[n+](=O)c2ccccc2n1[O-] ?
Reply: 29.8

Task item: Which growth inhibition value belongs to COc1ccc(/C=C/C(=O)c2ccccc2)cc1 ?
Reply: -28.9

Task item: Which growth inhibition value belongs to Cc1cc(C)c(C)c(C(=O)OC(C)C)c1C ?
Reply: -3.85

----------
# Assay text: NCI Yeast Anticancer Drug Screen. Data for the cln2 rad14 strain (AID 165);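 note: 0% = growth equal to vehicle treated cultures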
# Details: S. cerevisiae cln2 rad14 strain, at 50.0 µM, active compounds read high
This is part of a sample that, as a whole, favours compounds with a hit. Of some 79,000 tested, about 15% had one in any assay.
Quantity: growth inhibition (%)
Answer in %, number only, no unit symbol.

- Molecule: "CC1CCN(CCOC(=O)c2ccc(OC(C)C)cc2)C1 (stereo unspecified)"
  Units of measure: "%"
  growth inhibition: -10.5
- Molecule: "CC1(C)C2CC(NC(=O)c3ccc([N+](=O)[O-])cc3)C1C2 (stereo unspecified)"
  Units of measure: "%"
  growth inhibition: -4.9
- Molecule: "CC(=O)Nc1ccc(S(=O)(=O)N/N=C(\\C)c2csc3ccccc23)cc1"
  Units of measure: "%"
  growth inhibition: -16.1

Task item: Which growth inhibition value belongs to CNC(=O)CCC(NC(=O)OC(C)(C)C)C(=O)NC(Cc1ccc(NC(=O)CCCCC(C)=O)cc1)C(=O)NCC(=O)NC (stereo unspecified) ?
Reply: 9.8

Task item: Which growth inhibition value belongs to CC1=CC(=O)/C(=C/N2C(=O)CNC2=S)C(=O)O1 ?
Reply: 15.4

Task item: Which growth inhibition value belongs to CCCCCCOC(=O)C(C)(O)C(Cl)c1ccccc1 (stereo unspecified) ?
Reply: 3.9

Task item: Which growth inhibition value belongs to CC#CC#C/C=C1/C=CC2(CC=CO2)O1 (stereo unspecified) ?
Reply: 12.3

Task item: Which growth inhibition value belongs to CC(C)(C)/C=C/N=NNc1ccccc1C(=O)NC(C)(C)C ?
Reply: -54.5

Task item: Which growth inhibition value belongs to CCOC(=O)C(c1ccccc1)N(CCCN(CC)CC)c1ccccc1 (stereo unspecified) ?
Reply: -9.1

Task item: Which growth inhibition value belongs to CCOC(=O)C[P+](c1ccc(OC)cc1)(c1ccc(OC)cc1)c1ccc(OC)cc1 ?
Reply: 92.9
